# ASSAY_COMMENT: Solubility of synthetic polypeptides (precipitate in assay)
# Format: physicochemical
# MEASUREMENT_SETUP: under Competitive ELISA conditions
Ends that are not written are not given here.
EXPERIMENTAL_ENDPOINT: solubility

[
  {
    "ITEM_SEQUENCE": "SGASWVQYWWWR [1.21]",
    "TEST_RESULT": "insoluble"
  },
  {
    "ITEM_SEQUENCE": "SGWWWVQYWVQR [1.20]",
    "TEST_RESULT": "insoluble"
  },
  {
    "ITEM_SEQUENCE": "SGAWWVQYWVQR [1.18]",
    "TEST_RESULT": "insoluble"
  },
  {
    "ITEM_SEQUENCE": "SGASWVQFWVQR [1.17]",
    "TEST_RESULT": "formed a precipitate"
  }
]

# next sequence below
*Q* So what does the record say about solubility for ASWVQYWVQ [1.4] ?
*A* formed a precipitate

====

So I've got a bunch of sequences here, and I need their IC50 values.
# TARGET_UNDER_TEST: Recombinant human IL-23R-Fc (Homo sapiens)
# Construct: has the protein portion between the 24 amino acid residue to 353 amino acid residue; purchased R&D Systems 1400-IR-050
# Sequence (Q5VWK5 24-353): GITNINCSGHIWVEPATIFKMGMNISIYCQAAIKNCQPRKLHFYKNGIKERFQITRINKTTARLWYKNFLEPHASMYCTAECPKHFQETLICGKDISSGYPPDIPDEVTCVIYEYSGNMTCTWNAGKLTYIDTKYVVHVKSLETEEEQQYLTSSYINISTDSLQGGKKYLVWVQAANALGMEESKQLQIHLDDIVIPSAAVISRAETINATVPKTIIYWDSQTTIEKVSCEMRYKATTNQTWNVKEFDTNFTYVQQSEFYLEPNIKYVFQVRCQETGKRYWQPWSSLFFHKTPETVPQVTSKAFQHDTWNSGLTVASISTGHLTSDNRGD
# ASSAY_COMMENT: Competitive ELISA, IL-23 binding to IL-23R
# MEASUREMENT_SETUP: human IL-23 / IL-23R-Fc; read-out: IC50, Competitive ELISA
Ends that are not written are not given here.

[
  {
    "ITEM_SEQUENCE": "AMTWEDWWLYGR [compound 23]",
    "TEST_RESULT": "< 1.56 µM"
  },
  {
    "ITEM_SEQUENCE": "SGASWVQYWVQR [Polypeptide no. 1]",
    "TEST_RESULT": "6.25 to 12.5 µM"
  },
  {
    "ITEM_SEQUENCE": "DDWMQYWRQQVR [compound 27]",
    "TEST_RESULT": "~1.56 µM"
  }
]

# input for lookup
*Q* Param item = NWATYWQLRHQT [compound 9] ; retrieve measured IC50.
*A* ~3 µM
